Molecular target: recombinant human CD1d ectodomain/β2m complex (hCD1d) (Homo sapiens, UniProt P15813)
Construct: TEV protease cleavage site ENLYFQS (C); BirA biotinylation site (C); His7 (C); made in house; host or cells: TurboCHO cells (GenScript)
Sequence (P15813 whole entry, looked up, the tested form may be a part, one chain of several): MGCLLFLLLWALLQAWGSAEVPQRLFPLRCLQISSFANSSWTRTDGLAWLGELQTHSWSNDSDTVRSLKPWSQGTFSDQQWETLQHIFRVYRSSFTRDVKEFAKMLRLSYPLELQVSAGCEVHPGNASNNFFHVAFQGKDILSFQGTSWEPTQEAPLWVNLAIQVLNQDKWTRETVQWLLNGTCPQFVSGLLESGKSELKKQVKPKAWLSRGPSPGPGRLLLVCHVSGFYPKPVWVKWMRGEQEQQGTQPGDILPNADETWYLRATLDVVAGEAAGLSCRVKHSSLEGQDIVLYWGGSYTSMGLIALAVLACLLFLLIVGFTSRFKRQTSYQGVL
Assay: Intrinsic tryptophan fluorescence (ITF) binding assay
Conditions: K D (ITF), detergent with 100 nM hCD1d, 25°C, 1X PBS pH 7.4; apparent
Counter-ions that a name gives are not always drawn.
Assignment: determine reported Kd for the given compounds.
Please respond with the number in µM and leave the unit unwritten.

# get_value(readout='Kd', item= CCCCCCCCCCCCCCCC[N+](C)(C)C [CTAB, hexadecyltrimethylammonium bromide] )
41.5

Queued: CCCCCCCCCCCCOS(=O)(=O)O [SDS, sodium dodecyl sulfate]
35.5

###

Target: AF647‐labeled hCD1d (Homo sapiens)
Construct: TEV protease cleavage site ENLYFQS (C); BirA biotinylation site (C); His7 (C); made in house; host or cells: TurboCHO cells (GenScript)
Sequence (P15813 whole entry, looked up): as the sequence (P15813 whole entry, looked up, the tested form may be a part, one chain of several) above
Test: Microscale thermophoresis (MST) binding assay
Details: α‐GalCer titration with 0.05% Tween 20; estimated; read-out: K D (MST) of lipid
measured.property: pKd
Scale note: pKd = -log10(concentration in M).

# get_value(readout='pKd', item= CCCCCCCCCCCCCCCCCCCCCCCCCC(=O)N[C@@H](CO[C@H]1O[C@H](CO)[C@H](O)[C@H](O)[C@H]1O)[C@H](O)[C@H](O)CCCCCCCCCCCCCC [α‐GalCer, α‐galactosyl ceramide] )
5.18

###

Assignment: determine reported ΔT m (NanoDSF) for the given molecules.
Target: hCD1d (Homo sapiens, UniProt P15813+P61769)
Sequence (P61769+P15813 fused): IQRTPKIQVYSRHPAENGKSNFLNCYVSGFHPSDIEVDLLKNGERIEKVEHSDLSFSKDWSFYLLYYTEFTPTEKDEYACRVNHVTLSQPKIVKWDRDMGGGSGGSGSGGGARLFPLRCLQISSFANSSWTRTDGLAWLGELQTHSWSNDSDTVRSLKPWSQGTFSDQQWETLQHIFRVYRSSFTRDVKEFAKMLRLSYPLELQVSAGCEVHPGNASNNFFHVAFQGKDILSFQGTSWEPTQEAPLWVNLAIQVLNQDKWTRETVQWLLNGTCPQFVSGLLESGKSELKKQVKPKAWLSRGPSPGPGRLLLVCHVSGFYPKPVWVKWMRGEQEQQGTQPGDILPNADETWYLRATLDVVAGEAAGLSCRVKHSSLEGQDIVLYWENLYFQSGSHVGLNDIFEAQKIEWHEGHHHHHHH
Test: Nano differential scanning fluorimetry (nanoDSF) thermal stability
Type: binding
Parameters: TEV protease cleavage site ENLYFQS (C); BirA biotinylation site (C); His7 (C); made in house; host or cells: TurboCHO cells (GenScript)
Details: T m difference between hCD1d in the absence and presence of 1000 μM detergent; 1 μM hCD1d
Method: We next sought to probe the ability of each detergent to influence the thermal stability of hCD1d. […] Nano differential scanning fluorometry (nanoDSF) was performed using a Prometheus NT.48 (NanoTemper Technologies). […] The ratio of intrinsic fluorescence emission (F 350 nm/F 330 nm) was monitored. […]
Please respond with the number in °C and leave the unit unwritten.

# get_value(readout='ΔT m (NanoDSF)', item= CCCCCCCCO[C@@H]1O[C@H](CO)[C@@H](O)[C@H](O)[C@H]1O [ODG, n‐octyl‐β‐D‐glucopyranoside] )
−0.8

Queued: C[C@H](CCC(=O)NCCC[N+](C)(C)CCCS(=O)(=O)[O-])[C@H]1CC[C@H]2[C@@H]3[C@H](O)C[C@@H]4C[C@H](O)CC[C@]4(C)[C@H]3C[C@H](O)[C@]12C
−1.3

Queued: C[C@H](CCC(=O)O)[C@H]1CC[C@H]2[C@@H]3CC[C@@H]4C[C@H](O)CC[C@]4(C)[C@H]3C[C@H](O)[C@]12C [Deoxycholate, sodium deoxycholate]
−10.0

###

Target: recombinant human CD1d ectodomain/β2m complex (hCD1d) (Homo sapiens)
Construct: TEV protease cleavage site ENLYFQS (C); BirA biotinylation site (C); His7 (C); made in house; host or cells: TurboCHO cells (GenScript)
Assay: Intrinsic tryptophan fluorescence (ITF) binding assay
Conditions: ITF - Kd (uM) average, Figure 5A; detergent binding to hCD1d
Counter-ions that a name gives are not always drawn.
Assignment: determine reported Kd for the given molecules.
Please respond with the number in µM and leave the unit unwritten.

# get_value(readout='Kd', item= CCCCCCCCCCCCCCCC[N+](C)(C)C [CTAB, hexadecyltrimethylammonium bromide] )
41.5

Queued: C[C@H](CCC(=O)NCCC[N+](C)(C)CCCS(=O)(=O)[O-])[C@H]1CC[C@H]2[C@@H]3[C@H](O)C[C@@H]4C[C@H](O)CC[C@]4(C)[C@H]3C[C@H](O)[C@]12C
269

Queued: CCCCCCCCCCCCOS(=O)(=O)O [SDS, sodium dodecyl sulfate]
35.5
